pIC50 values for the compounds below.
molecular target: HIS-TGFβR1 T204D (Homo sapiens (Human), UniProt P36897, T204D); test: HTRF probe displacement assay, HIS-TGFβR1 T204D; settings: 1 nM HIS-TGFβR1 T204D, 1 hour at room temperature, read-out: TGFBR1T204D IC50
Sequence (P36897 34-503 T204D): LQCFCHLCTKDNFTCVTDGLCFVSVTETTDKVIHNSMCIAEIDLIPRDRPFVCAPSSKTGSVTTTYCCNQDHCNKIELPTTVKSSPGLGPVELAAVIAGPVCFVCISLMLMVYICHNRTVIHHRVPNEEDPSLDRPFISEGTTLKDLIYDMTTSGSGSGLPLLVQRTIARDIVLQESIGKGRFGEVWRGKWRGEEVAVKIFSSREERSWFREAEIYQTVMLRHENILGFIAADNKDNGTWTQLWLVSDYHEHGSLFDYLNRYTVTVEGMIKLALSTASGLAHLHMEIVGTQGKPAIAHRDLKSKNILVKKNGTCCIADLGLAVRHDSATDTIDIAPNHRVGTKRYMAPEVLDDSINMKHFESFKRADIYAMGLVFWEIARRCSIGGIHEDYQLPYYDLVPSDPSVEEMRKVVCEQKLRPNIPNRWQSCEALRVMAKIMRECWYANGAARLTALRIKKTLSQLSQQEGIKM
pIC50: −log10 of the molar value.
OBSERVABLE: pIC50

COMPOUND_STRING: CNC(=O)c1cnn2ccc(-c3cccnc3-c3cccc(C(F)(F)F)n3)nc12
OBSERVABLE: pIC50
ASSAY_VALUE: 6.47
--
COMPOUND_STRING: FC(F)(F)c1cccc(-c2ncccc2-c2ccn3nccc3n2)n1
OBSERVABLE: pIC50
ASSAY_VALUE: 7.82
--
COMPOUND_STRING: CC(=O)Nc1cccc(-c2ncccc2-c2ccc3ncc(C#N)n3c2)n1
OBSERVABLE: pIC50
ASSAY_VALUE: 6.04
--
COMPOUND_STRING: CC(=O)Nc1ccc(-c2ccc3ncc(C(N)=O)n3c2)c(-c2cccc(C)n2)n1
OBSERVABLE: pIC50
ASSAY_VALUE: 6.45
--
COMPOUND_STRING: Cc1cccc(-c2ncc(N)cc2-c2ccc3ncc(C(=O)O)n3c2)n1
OBSERVABLE: pIC50
ASSAY_VALUE: 8.40
--
COMPOUND_STRING: N#Cc1cnc2ccc(-c3cccnc3-c3ccccn3)cn12
OBSERVABLE: pIC50
ASSAY_VALUE: 6.99
--
COMPOUND_STRING: CCc1cccc(-c2ncccc2-c2ccc3ncnc(N)c3c2)n1
OBSERVABLE: pIC50
ASSAY_VALUE: 8.05
--
COMPOUND_STRING: Nc1ncnc2ccc(-c3cccnc3-c3cccc(C4CC4)n3)cc12
OBSERVABLE: pIC50
ASSAY_VALUE: 8.70
--
COMPOUND_STRING: COc1cccc(-c2ncccc2-c2ccc3ncc(C(N)=O)n3c2)n1
OBSERVABLE: pIC50
ASSAY_VALUE: 9.00
